Source: ChEMBL document CHEMBL1144721

Molecular target: ATP-dependent translocase ABCB1 (Homo sapiens, UniProt P08183)
Sequence (P08183 whole entry): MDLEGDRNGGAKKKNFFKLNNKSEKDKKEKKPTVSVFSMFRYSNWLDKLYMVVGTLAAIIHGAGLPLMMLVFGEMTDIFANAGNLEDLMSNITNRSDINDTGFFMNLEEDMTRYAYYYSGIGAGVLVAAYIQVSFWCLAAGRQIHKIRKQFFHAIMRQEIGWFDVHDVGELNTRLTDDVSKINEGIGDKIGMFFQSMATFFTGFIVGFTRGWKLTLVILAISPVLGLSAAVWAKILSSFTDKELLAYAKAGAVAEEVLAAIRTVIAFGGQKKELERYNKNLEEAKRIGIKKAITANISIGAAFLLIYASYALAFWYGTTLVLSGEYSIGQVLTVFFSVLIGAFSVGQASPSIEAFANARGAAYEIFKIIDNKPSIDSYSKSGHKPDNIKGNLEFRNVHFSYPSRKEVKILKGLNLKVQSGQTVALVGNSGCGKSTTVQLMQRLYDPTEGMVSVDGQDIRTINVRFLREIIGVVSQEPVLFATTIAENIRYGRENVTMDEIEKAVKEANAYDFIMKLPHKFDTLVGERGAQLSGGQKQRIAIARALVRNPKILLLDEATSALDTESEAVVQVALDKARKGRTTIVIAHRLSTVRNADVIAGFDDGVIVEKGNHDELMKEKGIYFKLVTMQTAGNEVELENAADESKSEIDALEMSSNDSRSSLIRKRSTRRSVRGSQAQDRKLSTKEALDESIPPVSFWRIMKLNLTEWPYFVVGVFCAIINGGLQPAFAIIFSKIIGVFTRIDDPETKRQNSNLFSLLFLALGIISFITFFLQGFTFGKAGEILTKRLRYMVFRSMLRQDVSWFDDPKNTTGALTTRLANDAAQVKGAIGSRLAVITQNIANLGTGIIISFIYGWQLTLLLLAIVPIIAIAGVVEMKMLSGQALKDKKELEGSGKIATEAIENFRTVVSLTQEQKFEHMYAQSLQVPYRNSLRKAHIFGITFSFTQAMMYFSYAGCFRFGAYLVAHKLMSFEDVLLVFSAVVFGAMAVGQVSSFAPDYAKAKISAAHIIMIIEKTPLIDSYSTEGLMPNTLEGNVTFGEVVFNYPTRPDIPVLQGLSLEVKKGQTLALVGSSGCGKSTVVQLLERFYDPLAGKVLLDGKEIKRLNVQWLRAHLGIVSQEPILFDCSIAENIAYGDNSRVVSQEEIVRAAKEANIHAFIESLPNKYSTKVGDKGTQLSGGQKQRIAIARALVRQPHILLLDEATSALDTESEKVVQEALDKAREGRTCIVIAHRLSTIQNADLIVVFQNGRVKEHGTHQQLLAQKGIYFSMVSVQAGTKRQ
Assay: Inhibition of P-glycoprotein-mediated multidrug resistance in human 2780AD cells assessed as calcein accumulation at 2.5 ug/mL relative to control
Assay type: cell-based
Parameters: scale not given: the % may be the effect or the level left
Conditions: a2780 adr
reported-metric: Activity (%)
# output: bare number, implied unit %

As a guide, the following entries are already answered.
COC(=O)[C@@]1(C)CC[C@]2(C(=O)O[C@@H]3O[C@H](CO)[C@@H](O)[C@H](O)[C@H]3O)CC[C@]3(C)C(=CC[C@@H]4[C@@]5(C)C[C@H](O)[C@H](O[C@@H]6OC[C@@H](OC7O[C@H](CO)[C@@H](O)[C@H](O)[C@H]7O)[C@H](O)[C@H]6O)[C@@](C)(CO)[C@@H]5CC[C@]43C)[C@@H]2C1 (stereo partly drawn) | 129
COC(=O)[C@@]1(C)CC[C@]2(C(=O)O)CC[C@]3(C)C(=CC[C@@H]4[C@@]5(C)C[C@H](O)[C@H](O[C@@H]6OC[C@@H](O)[C@H](O)[C@H]6O)[C@@](C)(CO)[C@@H]5CC[C@]43C)[C@@H]2C1 [PHYTOLACCOSIDE B] | 117

Would you kindly look at the next entry?
Query: Kindly state the measured Activity obtained for COC(=O)[C@@]1(C)CC[C@]2(C(=O)O[C@@H]3O[C@H](CO)[C@@H](O)[C@H](O)[C@H]3O)CC[C@]3(C)C(=CC[C@@H]4[C@@]5(C)CC[C@H](O[C@@H]6OC[C@@H](O[C@@H]7O[C@H](CO)[C@@H](O)[C@H](O)[C@H]7O)[C@H](O)[C@H]6O[C@@H]6O[C@H](CO)[C@@H](O)[C@H](O)[C@H]6O)[C@@](C)(CO)[C@@H]5CC[C@]43C)[C@@H]2C1 with ATP-dependent translocase ABCB1 (Homo sapiens, UniProt P08183).
Result: 106
